Reported values of melting point for individual entries
Structures can show the parent of a compound that is named as a salt.

Record excerpt, results attached:
• CCCCN(CC)c1cc(C)nc(Oc2c(C)cc(Cl)cc2C)c1C (as salt: HCl) = 177 to 178 °C
• CCC(CC)Oc1cc(C)nc(Nc2c(C)cc(C)cc2C)c1CN(C)C.Cl = 85 to 88 °C
• CCC(CC)Oc1cc(C)nc(Nc2c(C)cc(C)cc2C)c1NC(=O)CCl = 79 to 82 °C
• CCC(CC)Oc1nc(C)nc(Oc2c(C)cc(C)cc2C)c1C#N = 128 to 130 °C

Q. Looking for the measured melting point of CCC(CC)Oc1cc(C)nc2c1[nH]c(=O)n2-c1c(C)cc(C)cc1C , can you help?
A. 184 to 186 °C
